Would you kindly list clearance for each of these compounds?
test_name: Plasma clearance in the pig-PET study
Format: in vivo
condition: Yorkshire-Landrace, iv, 50 ug/kg, 50 micrograms/kg i.v., average model (from average plasma data)
Where a name gives a salt, the structure may show the parent alone.
Answers are plain numbers, in mL/min.

State the recorded clearance for every item in the following list.
1. CC(C)N1CCN(C(=O)c2ccc(OC3CCOCC3)cc2)CC1.Cl [Example E1]
2. CC(C)N1CCCN(C(=O)c2ccc(OC3CCOCC3)cc2)CC1 [Salt B, hydrochloride, reference compound]

38.3
48.3

----------
What clearance was measured for each of the following?
test_name: Plasma clearance in the pig-PET study
Format: in vivo
condition: Yorkshire-Landrace, iv, 50 ug/kg, 50 micrograms/kg i.v., mean of pigs 1-3
Where a name gives a salt, the structure may show the parent alone.
One number for each entry, in mL/min.

CC(C)N1CCCN(C(=O)c2ccc(OC3CCOCC3)cc2)CC1 [Salt B, hydrochloride, reference compound] : 46.7

Now examine the next entry.
Which clearance is listed for CC(C)N1CCN(C(=O)c2ccc(OC3CCOCC3)cc2)CC1.Cl [Example E1] ?
41.7

# credit: patent US20090170869A1
